Recorded inhibition for the following molecules
EXPERIMENT_SUMMARY: growth inhibitors of tim10-1 mutant yeast, primary screen, luminescence, uHTS (AID 463190);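 further: mutant grown at 25 °C; 0% = DMSO wells with yeast and 100% = wells holding no yeast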
STATED_CONDITIONS: S. cerevisiae tim10-1 ts strain growth, BacTiter-Glo, 24 h; at 20 µM; active compounds read high
Screen size: about 330,000 compounds; about 7,300 (2.2%) were called active. Shown is part of a subset that was picked to be rich in actives.

{"columns": ["MOLECULE", "inhibition (%)"],
 "data": [
  ["COc1ccccc1-n1ccnc(SCC(=O)NC2CCCCC2)c1=O", 43.2],
  ["CC(=O)Oc1c(C(=O)c2nnc(C)o2)c(=O)n(Cc2ccccc2)c2ccccc12", 7.1],
  ["Cc1cccc(OC(C)C(=O)N2CCc3ccccc3C2)c1 (stereo unspecified)", -6.4],
  ["Cc1oc2c(c1C(=O)N1CCOCC1)C(=O)c1ccccc1C2=O", 58.7],
  ["O=C1C(=O)N(CCN2CCOCC2)C(c2ccccn2)/C1=C(/O)c1ccc(Cl)cc1 (stereo unspecified)", 13.6],
  ["COc1ccc(N2CCN(C(=O)CCNC(=O)c3ccc(Br)cc3)CC2)cc1", 12.6],
  ["C/C=C/C=C/C(=O)OCC(=O)Nc1ccc(Cl)cc1", 15.8],
  ["CCN(c1ccc(NC(=O)COC(=O)CCc2nc3ccccc3n2-c2ccccc2)cc1)C(C)C", 13.1],
  ["CC(C)(C)CN1CCNC(=O)C1CC(=O)NC1Cc2ccccc2C1 (stereo unspecified)", 16.6],
  ["COc1ccc(CCOC(=O)CNC(=O)c2ccc(Cl)cc2Cl)cc1", 18.1],
  ["COc1ccc(-c2nnc(SCC(=O)NC3CCCCC3)o2)cc1OC", 17]
]}

###

EXPERIMENT_SUMMARY: growth inhibitors of tim10-1 mutant yeast, primary screen, luminescence, uHTS (AID 463190);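 further: mutant grown at 25 °C; 0% = DMSO wells with yeast and 100% = wells holding no yeast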
STATED_CONDITIONS: S. cerevisiae tim10-1 ts strain growth, BacTiter-Glo, 24 h; at 20 µM
In all, about 330,000 compounds went through this assay and about 7,300 (2.2%) were called active.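 Rule for the calls: active = inhibition of at least 40%; inactive = the rest.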 For the sample, actives were picked, then their nearest neighbours and some compounds at random.
Outcome codes: yes (1) for active, no (0) for inactive

{"columns": ["COMPOUND", "ASSIGNED_LABEL"],
 "data": [
  ["Cc1ccc2c(c1)C1CN(C)CCC1N2S(=O)(=O)c1ccc(Oc2ccc([N+](=O)[O-])cc2)cc1 (stereo not given)", "yes (1)"],
  ["CC(C)C(=O)Nc1ccc2c3c(cccc13)CC2", "no (0)"],
  ["CN[C@H](C(=O)NC[C@H]1O[C@@H](n2cnc3c(N)ncnc32)[C@H](O)[C@@H]1O)[C@@H](C)OCc1ccccc1", "no (0)"],
  ["Cc1ccc2c(c1)C1CN(C)CCC1N2S(=O)(=O)c1cccc(F)c1 (stereo not given)", "no (0)"],
  ["Cc1ccc2c(c1)C1CN(C)CCC1N2C(=S)Nc1ccc(OC(F)F)cc1 (stereo not given)", "no (0)"]
]}

###

EXPERIMENT_SUMMARY: growth inhibitors of tim10-1 mutant yeast, primary screen, luminescence, uHTS (AID 463190);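 further: mutant grown at 25 °C; 0% = DMSO wells with yeast and 100% = wells holding no yeast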
STATED_CONDITIONS: S. cerevisiae tim10-1 ts strain growth, BacTiter-Glo, 24 h; at 20 µM; active compounds read high
The campaign covered roughly 330,000 compounds. About 7,300 (2.2%) were called active. The sample holds actives, similar compounds and a random draw of the others, so the mix is not that of the screen.
inhibition of 20% or higher: Fulfilled. Under 20%: Not fulfilled.

{"columns": ["COMPOUND", "ASSIGNED_LABEL"],
 "data": [
  ["COc1ccc(-c2onc(C)c2-c2ccc3c(c2)OCCO3)c(O)c1", "Fulfilled"],
  ["CCOc1cccc(-c2nn3c(-c4ccccn4)nnc3s2)c1", "Fulfilled"],
  ["CCc1ccc(S(=O)(=O)Nc2ccc(C)c(NS(C)(=O)=O)c2)cc1", "Not fulfilled"],
  ["Cc1c(C)n2c(SCC(=O)N3CCCC3)nnc2[nH]c1=O", "Not fulfilled"],
  ["COc1ccc(-n2c(SCC(=O)OC(C)C)nnc2-c2ccccn2)cc1", "Fulfilled"],
  ["COc1ccccc1C1C(C#N)=C(N)Oc2c1c(-c1ccccc1)nn2-c1ccccc1 (configuration not stated)", "Fulfilled"],
  ["CCC(=O)N1CCc2cc(S(=O)(=O)NC(C(=O)N3CCc4ccccc4C3)C(C)C)ccc21 (configuration not stated)", "Fulfilled"],
  ["Cc1nn(-c2ccccc2)c2c1C(c1ccc(F)cc1)C(C#N)=C(N)O2 (configuration not stated)", "Fulfilled"],
  ["COc1ccc(/C=C2\\SC(=O)N(CCC(=O)NC3CCS(=O)(=O)C3)C2=O)cc1 (configuration not stated)", "Not fulfilled"],
  ["COc1ccc(Cl)cc1NC(=O)[C@@H]1CCCN1C(=O)c1cccs1", "Fulfilled"],
  ["Cc1ccc(C(=O)O/N=C(\\N)c2ccccn2)cc1Cl", "Fulfilled"],
  ["C=C(C)c1cccc(C(C)(C)NC(=O)NCCN(CC)CC)c1", "Not fulfilled"],
  ["O=C(NC1CCCC1)C(=O)c1c[nH]c2ccccc12", "Not fulfilled"],
  ["COc1ccc(/C=C2\\SC(=O)N(CCC(=O)NCCCn3ccnc3)C2=O)cc1", "Not fulfilled"],
  ["C/C(=N\\OC(=O)c1ccccc1)c1c(C)nc2cc(C)ccn12", "Not fulfilled"],
  ["Cc1[nH][nH]c(=O)c1C(c1ccc(-c2ccc(Cl)cc2)o1)c1c(C)[nH][nH]c1=O", "Fulfilled"],
  ["Cc1cccc(/C(N)=N/OC(=O)c2ccccc2Cl)c1", "Fulfilled"],
  ["N#CC(C(N)=O)=C1CCC2(CC1)OCCCCO2", "Not fulfilled"],
  ["COc1cc(Cl)c(C)cc1NC(=O)[C@@H]1CCCN1C(=O)c1cccs1", "Fulfilled"],
  ["COc1ccccc1-n1c(=S)[nH]c2c(sc(=S)n2-c2ccc(C)cc2C)c1=O", "Not fulfilled"],
  ["O=C(C(=O)N1CCc2ccccc2C1)c1c[nH]c2ccccc12", "Fulfilled"],
  ["Fc1ccc(N2CCN(Cc3cnc(Oc4ccc(Br)cc4)s3)CC2)cc1", "Fulfilled"]
]}
